Reported MFI pH 6.0 is given for each of the following binders.
Molecular target: T1, human CD3 on CD3+ Jurkat cells (human, UniProt P07766 23-207)
T1 construct: whole, on cells; Native CD3 complex on cells; the other CD3 chains are not specified for this assay; also called Human CD3+ Jurkat
T1 sequence (P07766 23-207): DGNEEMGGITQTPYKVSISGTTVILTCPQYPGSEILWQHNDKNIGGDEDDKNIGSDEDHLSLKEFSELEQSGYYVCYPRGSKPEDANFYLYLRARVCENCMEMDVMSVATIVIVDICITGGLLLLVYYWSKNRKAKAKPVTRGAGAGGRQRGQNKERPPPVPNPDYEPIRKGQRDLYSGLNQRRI
Assay: flow cytometry, 100 nM IgG on CD3+ Jurkat cells, pH 6.0
Readout Label: MFI pH 6.0 (MFI)

{"columns": ["Binder", "Readout Label", "Val"],
 "data": [
  ["SAD10319_P03_E09 (ADI-48640) (antibody, V domains shown, IgG; also called Ab26) VH: QVQLVQSGAEVKKPGASVKVSCKASGYTFLSYDMHWVRQAPGQRLEWMGWIDAGTGATTYSQKFQGRVTITRDTSASTAYMELSSLRSEDTAVYYCARDAYHHYFYDVWGQGTLVTVSS VL: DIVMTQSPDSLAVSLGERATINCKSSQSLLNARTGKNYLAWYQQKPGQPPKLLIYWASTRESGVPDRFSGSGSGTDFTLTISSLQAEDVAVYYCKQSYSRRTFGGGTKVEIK", "MFI pH 6.0", 772],
  ["SAD10318_P01_E01 (ADI-48577) (antibody, V domains shown, IgG; also called Ab193) VH: QVQLVQSGAEVKKPGASVKVSCKASGFNIKDYYMHWVRQAPGQRLEWMGWIDLENANTIYDAKFQGRVTITRDTSASTAYMELSSLRSEDTAVYYCARDAHHRYFYDVWGQGTLVTVSS VL: DIVMTQSPDSLAVSLGERATINCKSSQSLLNAHEGKNYLAWYQQKPGQPPKLLIYWASTRESGVPDRFSGSGSGTDFTLTISSLQAEDVAVYYCKQSHSHRTFGGGTKVEIK", "MFI pH 6.0", 5370],
  ["SAD10318_P01_H01 (ADI-48580) (antibody, V domains shown, IgG; also called Ab226) VH: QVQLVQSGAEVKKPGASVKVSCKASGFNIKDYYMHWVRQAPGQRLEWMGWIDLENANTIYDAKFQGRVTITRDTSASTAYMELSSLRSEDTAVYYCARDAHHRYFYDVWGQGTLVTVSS VL: DIVMTQSPDSLAVSLGERATINCKSSQSLLNAHTGKNHLAWYQQKPGQPPKLLIYWASTRESGVPDRFSGSGSGTDFTLTISSLQAEDVAVYYCKQSYHHRTFGGGTKVEIK", "MFI pH 6.0", 933]
]}
